- Assay Name: clinical
- Condition Context: human, in vivo, 5-FU Day 2 Mean T1/2, capecitabine daily dose 300 (with Eniluracil)
Property Label: half-life (h)
Reply with just the number (in h).

Return value of half-life for input O=c1[nH]cc(F)c(=O)[nH]1 , no commentary.
3.54
